Target: Kras and SOS1 (biotin-tagged human Kras loaded with GDP, His-tagged human SOS1) (Homo sapiens, UniProt P01116, G12D)
Construct: made in house; host or cells: E. coli (stated for Kras only)
Sequence (P01116 1-188 isoform P01116-2 G12D): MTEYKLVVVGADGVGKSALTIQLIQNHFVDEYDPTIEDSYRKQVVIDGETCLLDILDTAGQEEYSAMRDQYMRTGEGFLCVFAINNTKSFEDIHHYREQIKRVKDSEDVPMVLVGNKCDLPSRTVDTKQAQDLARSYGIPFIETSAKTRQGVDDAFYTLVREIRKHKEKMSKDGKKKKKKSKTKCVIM
Test: Protein-protein interaction inhibition between Kras and SOS1 (KrasGl2D-SOS PPI) using AlphaScreen
Assay type: binding
Conditions: AlphaScreen; biotin-tagged human Kras loaded with GDP, His-tagged human SOS1; read-out: KRAS G12D-SOS PPI IC50
Starred links: 1 amine or outer side, 2 acyl side, 3 side chain; linkers in the order of their positions; H or OH if unused. Positions of bridges follow the written chain, without caps; N, C: chain ends. Non-standard residues stand in square brackets, D forms with d. Residues, ends and D or L forms follow the SMILES beside them. NMeAbu(3,3-F2-piperidino) = CN[C@@H](CCN1CCCC(F)(F)C1)C(=O)O; hPhe(3-Cl-4-CF3) = N[C@@H](CCc1ccc(C(F)(F)F)c(Cl)c1)C(=O)O; NMePhe(4-Cl) = CN[C@@H](Cc1ccc(Cl)cc1)C(=O)O; NMePhe(4-Me) = CN[C@@H](Cc1ccc(C)cc1)C(=O)O; NMedβ3hAla = C[C@H](CC(=O)[*:2])N(C)[*:1]; NMeGly(cPent) = CN[C@H](C(=O)O)C1CCCC1; NMeI = CC[C@H](C)[C@H](NC)C(=O)O; NMeD = CN[C@@H](CC(=O)O)C(=O)O; NMeL = CN[C@@H](CC(C)C)C(=O)O; NMeV = CN[C@H](C(=O)O)C(C)C; d(β3hA) = C[C@@H](N)CC(=O)O; NMeA = CN[C@@H](C)C(=O)O; NMeAib = CNC(C)(C)C(=O)O; dNMeA = CN[C@H](C)C(=O)O; Ac5c = NC1(C(=O)O)CCCC1; Aze = O=C(O)[C@@H]1CCN1; Sar = CNCC(=O)O
Please go through the items and note down their IC50.
// note: answer is a bare numeric in nM

Enquiry: Please give the measured IC50 for this compound: CC[C@H](C)[C@@H]1NC(=O)[C@H](C)N(C)C(=O)C[C@@H](C)NC(=O)[C@H](C2CCCC2)N(C)C(=O)C2(CCCC2)NC(=O)[C@@H]2CCCN2C(=O)[C@H](CCc2ccc(C(F)(F)F)c(Cl)c2)NC(=O)[C@@H](C)N(C)C(=O)[C@H](C(C)C)N(C)C(=O)CN(C)C(=O)CN(C)C1=O [Compound 109] (cyclo([Ac5c][NMeGly(cPent)][d(β3hA)][NMeA]I[Sar][Sar][NMeV][dNMeA][hPhe(3-Cl-4-CF3)]P))
Return: 40

Enquiry: Again, but for CC[C@H](C)[C@@H]1NC(=O)[C@H](C)N(C)C(=O)C[C@@H](C)N(C)C(=O)[C@H](CC(C)C)NC(=O)C(C)(C)N(C)C(=O)[C@H](CC(C)C)NC(=O)[C@H](CCc2ccc(C(F)(F)F)c(Cl)c2)NC(=O)[C@@H](C)N(C)C(=O)[C@H](Cc2ccc(C)cc2)N(C)C(=O)[C@@H]2CCN2C(=O)CN(C)C1=O [Compound 1382] (cyclo([Aze][NMePhe(4-Me)][dNMeA][hPhe(3-Cl-4-CF3)]L[NMeAib]L[NMedβ3hAla][NMeA]I[Sar]))
Return: 230

Enquiry: Again, but for CC[C@H](C)[C@@H]1NC(=O)[C@H](C(C)C)N(C)C(=O)C[C@@H](C)NC(=O)[C@H](CC(C)C)N(C)C(=O)C2(CCCC2)NC(=O)[C@H](CC(C)C)N(C)C(=O)[C@H](CCc2ccc(C(F)(F)F)c(Cl)c2)NC(=O)CN(C)C(=O)[C@H](Cc2ccc(Cl)cc2)N(C)C(=O)[C@@H]2CCN2C(=O)CN(C)C1=O [Compound 158] (cyclo([Ac5c][NMeL][d(β3hA)][NMeV]I[Sar][Aze][NMePhe(4-Cl)][Sar][hPhe(3-Cl-4-CF3)][NMeL]))
Return: 10

Enquiry: Again, but for CC[C@H](C)[C@@H]1NC(=O)[C@H](CC(C)C)N(C)C(=O)C[C@@H](C(=O)N(C)C)N(C)C(=O)[C@H]([C@@H](C)CC)N(C)C(=O)C2(CCCC2)NC(=O)[C@H](CCN2CCCC(F)(F)C2)N(C)C(=O)[C@H](CCc2ccc(C(F)(F)F)c(Cl)c2)NC(=O)CN(C)C(=O)[C@H](Cc2ccc(C)cc2)N(C)C(=O)[C@@H]2CCN2C(=O)[C@H](C)N(C)C1=O [Compound 818] ([NMeL]I[NMeA][Aze][NMePhe(4-Me)][Sar][hPhe(3-Cl-4-CF3)][NMeAbu(3,3-F2-piperidino)][Ac5c][NMeI][NMeD]-NMe2; lactam N-11)
Return: 1.2

Enquiry: Again, but for CC[C@H](C)[C@@H]1NC(=O)[C@H](CC(C)C)N(C)C(=O)C[C@@H](C)NC(=O)[C@H](C2CCCC2)N(C)C(=O)C2(CCCC2)NC(=O)[C@@H]2CCCN2C(=O)[C@H](CCc2ccc(C(F)(F)F)c(Cl)c2)NC(=O)[C@@H](C)N(C)C(=O)[C@H](Cc2ccc(C)cc2)N(C)C(=O)CN(C)C(=O)CN(C)C1=O [Compound 1521] (cyclo([Ac5c][NMeGly(cPent)][d(β3hA)][NMeL]I[Sar][Sar][NMePhe(4-Me)][dNMeA][hPhe(3-Cl-4-CF3)]P))
Return: 110
